# target_system: Cannabinoid receptor 1 (Homo sapiens)
Could you please report measured pKi for the items listed next?
// pKi is dimensionless: -log10 of concentration (M)

Input: pKi of Cc1ccc(NC(=O)C(C)(C(F)(F)F)C(F)(F)F)cc1CN1CCOCC1 on Cannabinoid receptor 1 (Homo sapiens)?
Output: 5.20

Input: So what pKi did Cc1ccc(C(=O)NC2C3(C)CCC(C3)C2(C)C)cc1CC(=O)N1CCOCC1 (centres undefined) get with Cannabinoid receptor 1 (Homo sapiens)?
Output: 5.41

Input: Missing value: pKi, Cannabinoid receptor 1 (Homo sapiens), entry Cc1ccc(C(=O)NC2C(C)(C)[C@@H]3CC[C@@]2(C)C3)cc1CCN1CCOCC1 (some centres undefined) . Fill in?
Output: 5.85

Input: Tell me reported pKi for CC(C(=O)Nc1ccc2c(c1)C(N1CCOCC1)CCC2)(C(F)(F)F)C(F)(F)F (stereo in doubt; 43) , tested with Cannabinoid receptor 1 (Homo sapiens).
Output: 5.47

Input: Request - read-out pKi | tested on Cannabinoid receptor 1 (Homo sapiens) | compound Cc1cc(NC(=O)C2CCCCC2C)cc(CN2CCOCC2)c1C (centres undefined)
Output: 6.27

Input: Recall the recorded pKi for Cc1c(CN2CCOCC2)cc(NC(=O)C2CCCCC2C)cc1C(F)(F)F (centres undefined) with Cannabinoid receptor 1 (Homo sapiens) and state it.
Output: 6.96

Input: Recorded pKi for Cc1ccc(C(=O)NC2C(C)(C)[C@@H]3CC[C@@]2(C)C3)cc1N1CCOCC1 (some centres undefined) with Cannabinoid receptor 1 (Homo sapiens), please?
Output: 5.05

Input: For the record Cc1ccc(C(=O)NC2C(C)(C)[C@@H]3CC[C@@]2(C)C3)cc1S(=O)(=O)N1CCOCC1 (some centres undefined) , what value of pKi is listed for Cannabinoid receptor 1 (Homo sapiens)?
Output: 6.89

* * *

For each entry below, report its Ki value.
Response body: numeric value in nM, unit text excluded.

Input: Item Cc1ccc(C(=O)NC2C(C)(C)[C@@H]3CC[C@@]2(C)C3)cc1S(=O)(=O)N1CCOCC1 (some centres undefined) with Cannabinoid receptor 2 (Homo sapiens) - Ki?
Output: 3.9

Input: # value lookup — system Cannabinoid receptor 2 (Homo sapiens), readout Ki, item Cc1cc(C)c(NC(=O)C2CCCCC2C)cc1CN1CCOCC1 (centres undefined)
Output: 440

Input: State its Ki on Cannabinoid receptor 2 (Homo sapiens): Cc1c(CN2CCOCC2)cc(NC(=O)C2CCCCC2C)cc1C(F)(F)F (centres undefined)
Sequence (P34972 whole entry): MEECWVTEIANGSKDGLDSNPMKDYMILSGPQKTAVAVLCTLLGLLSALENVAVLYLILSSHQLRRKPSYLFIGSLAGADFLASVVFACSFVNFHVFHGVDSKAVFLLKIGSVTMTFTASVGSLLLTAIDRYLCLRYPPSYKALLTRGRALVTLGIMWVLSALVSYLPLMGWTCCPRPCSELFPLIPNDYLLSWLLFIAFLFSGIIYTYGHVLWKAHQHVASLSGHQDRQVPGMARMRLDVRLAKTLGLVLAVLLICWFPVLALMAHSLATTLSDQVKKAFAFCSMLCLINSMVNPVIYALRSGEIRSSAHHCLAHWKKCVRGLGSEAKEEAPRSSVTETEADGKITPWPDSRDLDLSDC
Output: 17

Input: Tell me reported Ki for Cc1cc(F)c(NC(=O)C2CCCCC2C)cc1CN1CCOCC1 (centres undefined) , tested with Cannabinoid receptor 2 (Homo sapiens).
Output: 37

Input: So what Ki did Cc1ccc(C(=O)NC2C(C)(C)[C@@H]3CC[C@@]2(C)C3)cc1CN1CCOCC1 (some centres undefined) get with Cannabinoid receptor 2 (Homo sapiens)?
Output: 19

Input: Requested read-out Ki, target or system Cannabinoid receptor 2 (Homo sapiens), entry Cc1ccc(C(=O)NC2C(C)(C)[C@@H]3CC[C@@]2(C)C3)cc1CCN1CCOCC1 (some centres undefined)
Output: 45

Input: // fetch Cannabinoid receptor 2 (Homo sapiens) Ki for CCC(C)(C)C(=O)Nc1ccc(C)c(CN2CCOCC2)c1
Output: 120

Input: Find the measured Ki: item CC(C(=O)Nc1ccc2c(c1)C(N1CCOCC1)CCC2)(C(F)(F)F)C(F)(F)F (single isomer, unassigned; enantiomer 2) , target or system Cannabinoid receptor 2 (Homo sapiens).
Output: 120

Input: What value of Ki on Cannabinoid receptor 2 (Homo sapiens) does CCC(C)(C)C(=O)Nc1cc(CN2CCOCC2)c(C)cc1C have?
Output: 530

* * *

Please respond with reported Activity for every item in the list.
# target_system: Cannabinoid receptor 1 (Homo sapiens, UniProt P21554)
# Sequence (P21554 whole entry): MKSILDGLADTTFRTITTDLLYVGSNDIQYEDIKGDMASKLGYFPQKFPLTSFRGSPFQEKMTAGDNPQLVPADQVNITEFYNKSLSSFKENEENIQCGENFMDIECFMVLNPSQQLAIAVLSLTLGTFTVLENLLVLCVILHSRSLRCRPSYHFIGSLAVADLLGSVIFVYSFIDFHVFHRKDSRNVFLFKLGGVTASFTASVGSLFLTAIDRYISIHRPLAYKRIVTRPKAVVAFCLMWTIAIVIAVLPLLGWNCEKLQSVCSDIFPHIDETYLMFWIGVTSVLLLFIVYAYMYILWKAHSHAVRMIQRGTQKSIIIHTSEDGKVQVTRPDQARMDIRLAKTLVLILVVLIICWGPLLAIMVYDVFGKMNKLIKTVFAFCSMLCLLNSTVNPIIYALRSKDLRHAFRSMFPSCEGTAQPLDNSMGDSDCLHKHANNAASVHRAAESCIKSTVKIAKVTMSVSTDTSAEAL
# test_details: Displacement of [3H]CP-55940 from human CB1 receptor expressed in CHO cells
# Assay type: cell-based
Only the number, expressed in %, is required.

Input: Would you kindly share the measured Activity for CCC(C)(C)C(=O)Nc1ccc(C)c(CN2CCOCC2)c1 ?
Output: 4

Input: Which measured Activity value corresponds to Cc1cc(C)c(NC(=O)C2CCCCC2C)cc1CN1CCOCC1 (stereo not given) ?
Output: 14

Input: Look up Activity: Cc1cc(F)c(NC(=O)C2CCCCC2C)cc1CN1CCOCC1 (stereo not given)
Output: 31

Input: What value of Activity has been reported for the following compound? CCC(C)(C)C(=O)Nc1cc(CN2CCOCC2)c(C)cc1F
Output: 10

Input: // query Activity value for entry CCC(C)(C)C(=O)Nc1cc(CN2CCOCC2)c(C)cc1C
Output: 18

* * *

# test_details: Metabolic stability in rat liver microsomes after 30 mins
# Type: ADME, Microsome
# assay_setup: read-out: Stability
Assign labels as follows, please: condition met for remaining at 0.5 h below 2%; condition not met for remaining at 0.5 h equal to or exceeding 2%.

Input: Criterion: remaining at 0.5 h strictly below 2%. Is it met by Cc1cc(NC(=O)C(C)(C(F)(F)F)C(F)(F)F)cc(CN2CCOCC2)c1C ?
Output: condition not met

Input: Lab note: remaining at 0.5 h threshold 2%. Does this molecule come in strictly under it? Cc1ccc(NC(=O)C2CCCCC2C)cc1CN1CCOCC1 (stereo unspecified)
Output: condition not met

Input: Dear reviewer, please state whether Cc1cc(C)c(NC(=O)C2CCCCC2C)cc1CN1CCOCC1 (stereo unspecified) has remaining at 0.5 h strictly beneath 2%.
Output: condition not met

Input: Hello, I'm reviewing records and need to know if remaining at 0.5 h of Cc1ccc(C(=O)NC2C(C)(C)[C@@H]3CC[C@@]2(C)C3)cc1C(=O)N1CCOCC1 (stereo partly specified) is below 2%. Could you check?
Output: condition not met

Input: Identify whether the molecule CCC(C)(C)C(=O)Nc1cc(CN2CCOCC2)c(C)cc1F records remaining at 0.5 h below 2%.
Output: condition not met

Input: Is remaining at 0.5 h of Cc1ccc(NC(=O)C(C)(C(F)(F)F)C(F)(F)F)cc1CN1CCOCC1 strictly below 2%?
Output: condition met

Input: Record CCC(C)(C)C(=O)Nc1ccc(C)c(CN2CCOCC2)c1 : is its remaining at 0.5 h strictly below 2%?
Output: condition not met

Input: Please state whether remaining at 0.5 h is below 2% for Cc1cc(NC(=O)C2CCCCC2C)cc(CN2CCOCC2)c1C (stereo unspecified)
Output: condition met

Input: Dear reviewer, please state whether Cc1cc(F)c(NC(=O)C2CCCCC2C)cc1CN1CCOCC1 (stereo unspecified) has remaining at 0.5 h strictly beneath 2%.
Output: condition not met

Input: Lab note: remaining at 0.5 h threshold 2%. Does this molecule come in strictly under it? CCC(C)(C)C(=O)Nc1cc(CN2CCOCC2)c(C)cc1C
Output: condition not met

* * *

Consider the following compounds; for each one, report its log10 of Ki.
Lab note - Ki converted to log10 from values in nM.

Input: Checklist item: log10 of Ki tested on Cannabinoid receptor 2 (Homo sapiens), entry Cc1ccc(C(=O)NC2C(C)(C)[C@@H]3CC[C@@]2(C)C3)cc1N1CCOCC1 (some centres not stated) , value?
Output: 2.48

Input: Item: Cc1ccc(C(=O)NC2C(C)(C)[C@@H]3CC[C@@]2(C)C3)cc1CCCN1CCOCC1 (some centres not stated) Test system: Cannabinoid receptor 2 (Homo sapiens) Read-out: log10 of Ki Value: ?
Output: 1.79

Input: Look up log10 of Ki with Cannabinoid receptor 2 (Homo sapiens) for this compound: Cc1ccc(C(=O)NC2C(C)(C)[C@@H]3CC[C@@]2(C)C3)cc1C(=O)N1CCOCC1 (some centres not stated)
Output: 3.08

Input: Reported log10 of Ki for Cannabinoid receptor 2 (Homo sapiens), given CC(C(=O)Nc1ccc2c(c1)C(N1CCOCC1)CCC2)(C(F)(F)F)C(F)(F)F (stereo in doubt; 43) ?
Output: 1.00

Input: Under Cannabinoid receptor 2 (Homo sapiens): log10 of Ki value of Cc1ccc(NC(=O)C(C)(C(F)(F)F)C(F)(F)F)cc1CN1CCOCC1 ?
Output: 1.20

Input: Missing value: log10 of Ki, Cannabinoid receptor 2 (Homo sapiens), entry CC(C(=O)Nc1ccc2c(c1)C(N1CCOCC1)CCC2)(C(F)(F)F)C(F)(F)F (single isomer, unassigned) . Fill in?
Output: 0.36

Input: Provide the documented log10 of Ki with Cannabinoid receptor 2 (Homo sapiens) as the system for Cc1ccc(NC(=O)C2CCCCC2C)cc1CN1CCOCC1 (configuration not stated)
Output: 1.85

* * *

Assay system Cannabinoid receptor 2 (Homo sapiens, UniProt P34972); read-out recorded as log10 of Ki.
# values: log10(Ki), units nM

Input: Quick one: log10 of Ki for Cc1ccc(C(=O)NC2C3(C)CCC(C3)C2(C)C)cc1CC(=O)N1CCOCC1 (stereo not given) ?
Output: 2.85

Input: Give the measured log10 of Ki of Cc1cc(NC(=O)C(C)(C(F)(F)F)C(F)(F)F)cc(CN2CCOCC2)c1C .
Output: 0.43

Input: Query: log10 of Ki; subject: Cc1ccc(C(=O)NC2C(C)(C)[C@@H]3CC[C@@]2(C)C3)cc1CCC(=O)N1CCOCC1 (stereo not given in full)
Output: 1.92

Input: I'd like to know its log10 of Ki. The molecule in question is Cc1cc(NC(=O)C2CCCCC2C)cc(CN2CCOCC2)c1C (stereo not given)
Output: 0.93

Input: Which log10 of Ki reading was recorded for the molecule CCC(C)(C)C(=O)Nc1cc(CN2CCOCC2)c(C)cc1F ?
Output: 2.08
